# systemName: Coagulation factor X (Homo sapiens)
# Sequence (P00742 41-179 limits assumed): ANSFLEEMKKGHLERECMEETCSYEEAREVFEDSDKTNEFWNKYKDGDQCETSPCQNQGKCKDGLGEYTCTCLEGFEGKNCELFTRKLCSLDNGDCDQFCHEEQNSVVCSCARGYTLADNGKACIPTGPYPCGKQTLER
# Sequence (P00742 235-488 limits assumed): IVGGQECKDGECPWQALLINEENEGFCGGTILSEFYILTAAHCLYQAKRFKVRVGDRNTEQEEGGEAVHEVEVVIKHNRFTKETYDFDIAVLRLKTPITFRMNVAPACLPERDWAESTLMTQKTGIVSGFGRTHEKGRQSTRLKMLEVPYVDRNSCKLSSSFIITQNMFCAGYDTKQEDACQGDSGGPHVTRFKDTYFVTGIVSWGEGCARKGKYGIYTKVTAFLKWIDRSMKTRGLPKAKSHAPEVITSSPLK
Note to self: Ki under 100 nM means 1, ties and anything higher get -1.

Some entries whose results are on file:
- N=C(N)c1ccc(NC(=O)C2(CC(=O)O)CC(c3cccc(C(=N)N)c3)=NO2)cc1 (stereo not given): -1
- N=C(N)c1ccc(/C=C2/CCCC/C(=C\c3ccc(C(=N)N)cc3)C2=O)cc1: 1
- N=C(N)c1ccc(NC(=O)CC2CC(c3ccc(C(=N)N)cc3)=NO2)cc1 (stereo not given): -1
- COC(=O)CC1(C(=O)Nc2cccc(C(=N)N)c2)CC(c2cccc(C(=N)N)c2)=NO1 (stereo not given): -1

**Q:** Regarding N=C(N)c1ccc(NC(=O)CC2CC(c3cccc(C(=N)N)c3)=NO2)cc1 (stereo not given) , kindly confirm whether its Ki is beneath 100 nM.
**A:** -1

---

Heads up, these molecules all have Ki values measured for Prothrombin (Homo sapiens).
Answers are plain numbers, in µM.

The following molecules have reported results that may help.
- COC(=O)CC1(C(=O)Nc2cccc(C(=N)N)c2)CC(c2cccc(C(=N)N)c2)=NO1 (configuration not stated): 11.8
- N=C(N)c1ccc(NC(=O)CC2CC(c3cccc(C(=N)N)c3)=NO2)cc1 (configuration not stated): 11.1
- COC(=O)CC1(C(=O)Nc2ccc(C(=N)N)cc2)CC(c2cccc(C(=N)N)c2)=NO1 (configuration not stated): 16

For every record below, what is its Ki?
1. N=C(N)c1ccc(NC(=O)CC2CC(c3ccc(C(=N)N)cc3)=NO2)cc1 (configuration not stated)
2. N=C(N)c1ccc(C2=NOC(CC(=O)Nc3cccc(C(=N)N)c3)C2)cc1 (configuration not stated)
3. COC(=O)CC1(C(=O)Nc2cccc(C(=N)N)c2)CC(c2ccc(C(=N)N)cc2)=NO1 (configuration not stated)

**A:**
1. 2.2
2. 2.2
3. 14.1

Source listed as ChEMBL document CHEMBL1129218.
